molecular target: T1, hMPV PostF trimer (human metapneumovirus, strain B2); assay: BLI, mAb on anti-human Fc sensor
T1 construct: also called MPV PostF (dPFv1)
Observation Type: Octet binding response (nm)
Give bare numbers, in nm.

- M3A12 (antibody, V domains shown, IgG) VH: QVQLQESGPQLVKPSQTLSLTCTVSGDSISSSDYCWSWIRQSPGKGLEWIGHSVYSGDTQYNPSLKSRLSISVDTSKNQFSLRLRSVTAADTAVYYCARGNDFWSGSFDYWGQGALVIVSS VL: DIQMTQSPSSLSASVGDRVTITCRASQSIGTYLNWYQQKPGKAPKVLIYAASSLQSGVPSRFSGRGSGTDFTLTVSSLQPEDFASYYCQQSYTKPYTFGQGTKLEIK: 0.0469
- M2A05 (antibody, V domains shown, IgG) VH: QITLKESGPTLVKPTQTLTLTCTVSGFSLSANSVGVAWFRQPPGKAPEWLGVIYWDDDKRFSPSLKTRLSITKDASTSQVVLRLTNVSPLDTATYYCVRKHYDLLQWGQGAPVTVSS VL: EIVLTQSPGTLSLSPGEGATLSCRASRSVNSDYIAWYQHKPGLAPRLLIYAASTRATDIPDRFRADVSGTDFTLTIDRLEPDDFAVYYCQQYGSAVWTFGQGTRVEVK: 0.449

For M3D08 (antibody, V domains shown, IgG) VH: QVQLQESGPGLVKPSETLSLTCSVSGVSISSHYWSWIRQPAGKGLEWIGRLYTSGTTTYNPSLNSRVTMSVDTTNNRLSLRLTSVTAADTAVYYCARDVRLTVFGALHNWFDPWGQGILVTVSS VL: DIQMTQSPSSLSASVGDRVTITCRASQSIGTHLNWYQQQRGRAPKLLVYAASGLQSGVPSRFSGSGSGTYFTLTISSLQPEDFATYYCQQSYSTPSITFGQGSRLDIK the binder record lists Octet binding response as 0.307

Attribution: patent US20240327502A1
